# Tested on: PSMA-expressing LNCAP cancer xenografts
# assay.details: Biodistribution of ^68Ga-labeled PSMA-targeting tracers
# Format: in vivo, mice
# setup.conditions: 1 h post-injection
measured.endpoint: Tissue (% ID/g): Muscle
Enter your answer as a number in % ID/g; do not include the unit.

Memo: CCCCCC[C@H](NC(=O)[C@H]1CC[C@H](CNC(=O)CN2CCN(CC(=O)[O-])CCN(CC(=O)[O-])CCN(CC(=O)[O-])CC2)CC1)C(=O)NCCCC[C@H](NC(=O)N[C@@H](CCC(=O)O)C(=O)O)C(=O)O.[68Ga+3] [^68Ga-HTK03026] , reported Tissue (% ID/g): Muscle: 0.28

Per the records, this molecule ( O=C([O-])CN1CCN(CC(=O)[O-])CCN(CC(=O)NC[C@H]2CC[C@H](C(=O)N[C@@H](Cc3ccc4cc5ccccc5cc4c3)C(=O)NCCCC[C@H](NC(=O)N[C@@H](CCC(=O)O)C(=O)O)C(=O)O)CC2)CCN(CC(=O)[O-])CC1.[68Ga+3] [^68Ga-HTK03027] ) has Tissue (% ID/g): Muscle equal to 0.48

The measured Tissue (% ID/g): Muscle associated with O=C([O-])CN1CCN(CC(=O)[O-])CCN(CC(=O)NC[C@H]2CC[C@H](C(=O)N[C@@H](Cc3c4ccccc4cc4ccccc34)C(=O)NCCCC[C@H](NC(=O)N[C@@H](CCC(=O)O)C(=O)O)C(=O)O)CC2)CCN(CC(=O)[O-])CC1.[68Ga+3] [^68Ga-HTK03041] reads 0.75

In plain terms, O=C([O-])CN1CCN(CC(=O)[O-])CCN(CC(=O)NC[C@H]2CC[C@H](C(=O)N[C@@H](Cc3ccc4ccc5cccc6ccc3c4c56)C(=O)NCCCC[C@H](NC(=O)N[C@@H](CCC(=O)O)C(=O)O)C(=O)O)CC2)CCN(CC(=O)[O-])CC1.[68Ga+3] [^68Ga-HTK03029] has a documented Tissue (% ID/g): Muscle of 0.63
